Reference source for all entries: patent US20230134571A1

assay-target: HIV Env of isolate T278-50 (clade AG) (HIV)
method-description: cell-based or functional assay
outcome-measure: IC50 (µg/ml) with constrains (µg/mL)
Write down the numeric answer in µg/mL and omit the unit.

Exam item: I have this binder here, ePGDM9 (antibody, V domains shown) VH: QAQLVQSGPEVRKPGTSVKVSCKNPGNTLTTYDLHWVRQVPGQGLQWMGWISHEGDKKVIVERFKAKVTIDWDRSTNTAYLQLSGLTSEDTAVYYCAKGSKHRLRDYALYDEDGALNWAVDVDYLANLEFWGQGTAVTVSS VL: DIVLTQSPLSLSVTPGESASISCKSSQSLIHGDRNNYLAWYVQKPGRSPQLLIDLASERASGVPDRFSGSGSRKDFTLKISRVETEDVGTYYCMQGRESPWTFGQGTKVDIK , and I need its recorded IC50 (µg/ml) with constrains.
Marked response: 0.506

Exam item: I have this binder here, ePGDM5 (antibody, V domains shown) VH: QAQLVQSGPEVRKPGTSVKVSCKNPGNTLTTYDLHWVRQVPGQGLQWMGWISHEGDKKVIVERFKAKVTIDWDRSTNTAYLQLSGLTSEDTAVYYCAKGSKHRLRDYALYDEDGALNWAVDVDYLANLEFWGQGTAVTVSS VL: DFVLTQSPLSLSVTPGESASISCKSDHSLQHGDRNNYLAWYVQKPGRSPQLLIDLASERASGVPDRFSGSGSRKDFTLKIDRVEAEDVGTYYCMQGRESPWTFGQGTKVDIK , and I need its recorded IC50 (µg/ml) with constrains.
Marked response: 1.06

Exam item: I have this binder here, PGDM1400 (antibody, V domains shown) VH: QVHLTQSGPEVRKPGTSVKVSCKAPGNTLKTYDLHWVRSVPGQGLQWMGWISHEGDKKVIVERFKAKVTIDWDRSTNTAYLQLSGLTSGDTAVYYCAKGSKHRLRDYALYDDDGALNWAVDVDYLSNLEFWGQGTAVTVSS VL: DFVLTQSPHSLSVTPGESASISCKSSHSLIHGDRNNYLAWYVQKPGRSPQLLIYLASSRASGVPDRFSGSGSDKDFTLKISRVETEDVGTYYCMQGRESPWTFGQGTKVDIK , and I need its recorded IC50 (µg/ml) with constrains.
Marked response: 5.41
